Target: Leukotriene, Cysteinyl CysLT1 (Cavia porcellus)
Construct: from tissue; host or cells: guinea pig lung membrane
Assay: receptor radio-ligand-binding assay (Tritiated LTD4 as the ligand), Guinea pig lung membrane
Conditions: 0.5 h; 3 nM test compound; 0.2 nM 3H LTD4, Guinea pig lung membrane; read-out: % Inhbition (in nM) 3
assay_endpoint: inhibition at 0.003 µM (%)

Answered cases to consult:
{"compound": "COc1cc(C(=O)O)c(CCC2(c3cccc(/C=C/c4ccc5ccc(Cl)cc5n4)c3)OCCCO2)cc1[N+](=O)[O-]", "scale_unit": "%", "endpoint_value": 81}
{"compound": "O=C(O)c1ccccc1C(=O)NC(CCc1ccccc1C(=O)N1CCCC1)c1cccc(/C=C/c2ccc3ccc(Cl)cc3n2)c1 (stereo not shown)", "scale_unit": "%", "endpoint_value": 67}
{"compound": "COC(=O)c1ccccc1CCC(NC(=O)C1=C(C(=O)O)CCC1)c1cccc(/C=C/c2ccc3ccc(Cl)cc3n2)c1 (stereo not shown)", "scale_unit": "%", "endpoint_value": 64}
{"compound": "CCOC(COc1ccc(OC)cc1C(=O)NS(C)(=O)=O)c1cccc(/C=C/c2ccc3ccc(Cl)cc3n2)c1 (stereo not shown)", "scale_unit": "%", "endpoint_value": 72}

[A] Cc1oc(=O)oc1COC(=O)c1ccccc1CCC1(c2cccc(/C=C/c3ccc4ccc(Cl)cc4n3)c2)OCCO1
[B] C#CCOc1ccc(CCC2(c3cccc(/C=C/c4ccc5ccc(Cl)cc5n4)c3)OCCO2)c(C(=O)O)c1
[C] O=C(O)c1ccccc1CCC(NC(=O)C(F)(F)F)c1cccc(/C=C/c2ccc3ccc(Cl)cc3n2)c1 (stereo not shown)
*Q* Sort by inhibition at 0.003 µM, descending. Please list each label once, in the requested order.
*A* A, C, B

---

Molecular target: Leukotriene, Cysteinyl CysLT1 (Cavia porcellus, UniProt Q2NNR5)
Construct: from tissue; host or cells: guinea pig lung membrane
Sequence (Q2NNR5 1-340): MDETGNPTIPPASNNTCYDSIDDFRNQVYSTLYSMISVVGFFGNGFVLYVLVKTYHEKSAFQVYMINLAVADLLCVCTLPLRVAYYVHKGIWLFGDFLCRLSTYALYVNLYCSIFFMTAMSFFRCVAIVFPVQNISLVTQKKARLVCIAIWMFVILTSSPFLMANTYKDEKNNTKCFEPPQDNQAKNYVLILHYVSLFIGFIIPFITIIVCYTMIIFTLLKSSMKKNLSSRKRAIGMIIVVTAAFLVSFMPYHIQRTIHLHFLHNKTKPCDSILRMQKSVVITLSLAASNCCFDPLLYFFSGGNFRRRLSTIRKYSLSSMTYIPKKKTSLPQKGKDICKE
Experiment: receptor radio-ligand-binding assay (Tritiated LTD4 as the ligand), Guinea pig lung membrane
Conditions: 0.5 h; 3 nM test compound; 0.2 nM 3H LTD4, Guinea pig lung membrane; read-out: % Inhbition (in nM) 3
assay_endpoint: inhibition at 0.003 µM (%)

Example entries and their recorded answers appear below.
{"compound": "O=C(N[C@H](CCc1ccccc1C(=O)O)c1cccc(/C=C/c2ccc3ccc(Cl)cc3n2)c1)c1ccco1 [Ia.54]", "target": "Leukotriene, Cysteinyl CysLT1 (Cavia porcellus, UniProt Q2NNR5)", "assay_endpoint": "inhibition at 0.003 µM", "endpoint_value": 60}
{"compound": "CC(ON=C(CCc1ccccc1C(C)(C)O)c1cccc(/C=C/c2ccc3ccc(Cl)cc3n2)c1)C(=O)O (stereo not drawn) [Ib.148]", "target": "Leukotriene, Cysteinyl CysLT1 (Cavia porcellus, UniProt Q2NNR5)", "assay_endpoint": "inhibition at 0.003 µM", "endpoint_value": 16}
{"compound": "CCN(CC)C(=O)c1ccccc1CCC(NC(=O)c1ccccc1C(=O)OC)c1cccc(/C=C/c2ccc3ccc(Cl)cc3n2)c1 (stereo not drawn) [Ia.48]", "target": "Leukotriene, Cysteinyl CysLT1 (Cavia porcellus, UniProt Q2NNR5)", "assay_endpoint": "inhibition at 0.003 µM", "endpoint_value": 56}
{"compound": "O=C(O)c1cc2c(cc1CCC1(c3cccc(/C=C/c4ccc5ccc(Cl)cc5n4)c3)OCCCO1)OCO2 [Ib.133]", "target": "Leukotriene, Cysteinyl CysLT1 (Cavia porcellus, UniProt Q2NNR5)", "assay_endpoint": "inhibition at 0.003 µM", "endpoint_value": 57}
{"compound": "O=C(O)c1ccccc1SCC1(c2cccc(/C=C/c3ccc4ccc(Cl)cc4n3)c2)OCCO1 [Ib.42]", "target": "Leukotriene, Cysteinyl CysLT1 (Cavia porcellus, UniProt Q2NNR5)", "assay_endpoint": "inhibition at 0.003 µM", "endpoint_value": 41}

[a] O=C(O)c1cc2c(cc1CCC1(c3cccc(/C=C/c4ccc5ccc(Cl)cc5n4)c3)OCCO1)OCCO2 [Ib.139]
[b] CCOC(COc1ccc(OC)cc1C(=O)O)c1cccc(C#Cc2ccc3ccc(Cl)cc3n2)c1 (stereo not drawn) [Ia.199]
*Q* Select the item with the higher value of inhibition at 0.003 µM from the options a and b listed. Answer with the label corresponding to your selection.
*A* b
(b: 88%, a: 52%)

[I] C#CCOC(COc1ccccc1C(=O)O)c1cccc(/C=C/c2ccc3ccc(Cl)cc3n2)c1 (stereo not drawn) [Ia.127]
[II] CC(=O)OC(CSc1ccccc1C(=O)O)c1cccc(/C=C/c2ccc3ccc(Cl)cc3n2)c1 (stereo not drawn) [Ia.118]
*Q* Select one: I or II . Criterion: greater recorded inhibition at 0.003 µM. Label of pick, please.
*A* I
(I: 69%, II: 46%)

[I] C#CCO[C@H](COc1ccc(OC)cc1C(=O)O)c1cccc(/C=C/c2ccc3ccc(Cl)cc3n2)c1 [Ia.185]
[II] CCOc1ccc(CCC2(c3cccc(/C=C/c4ccc5ccc(Cl)cc5n4)c3)OCCO2)c(C(=O)O)c1 [Ib.86]
*Q* Hi! Which is lower in terms of inhibition at 0.003 µM, the first one I or the second one II ? Kindly state the label of the option you pick.
*A* II
(II: 38%, I: 60%)

[I] CCOC(COc1ccc(OC)cc1C(=O)O)c1cccc(/C=C/c2nc3ccccc3s2)c1 (stereo not drawn) [Ia.192]
[II] O=C(c1ccccc1CCC1(c2cccc(/C=C/c3ccc4ccc(Cl)cc4n3)c2)OCCO1)N1CCCC1 [Ib.36]
*Q* Identify the entry with the larger inhibition at 0.003 µM. Options: I and II Your choice should be expressed through its label.
*A* II
